B1: glmS ribozyme (parent)
chain: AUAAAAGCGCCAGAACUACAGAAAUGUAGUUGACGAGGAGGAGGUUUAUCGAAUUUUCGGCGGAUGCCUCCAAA

Variants of: B1
experiment.description: self-cleavage kobs at 2500 uM GlcN6P; higher = faster cleavage; RNA array
test.parameters: with glucosamine-6-phosphate
Variants at the floor of the assay were thinned out.
Tag: condition met if measured self-cleavage kobs at 2500 uM GlcN6P is not below 0.0001 s⁻¹, condition not met if it is.

In: Test whether the variant G51U A52U U54G U55C records self-cleavage kobs at 2500 uM GlcN6P of 0.0001 s⁻¹ or higher.
Out: condition not met

In: // inclusive: self-cleavage kobs at 2500 uM GlcN6P at least 0.0001 s⁻¹? input: A39C A48C U55C C58U
Out: condition not met

In: Please tell me: is the variant G9C A39U U45C C58U at or over 0.0001 s⁻¹ in terms of self-cleavage kobs at 2500 uM GlcN6P?
Out: condition not met

In: Confirm if self-cleavage kobs at 2500 uM GlcN6P reported for the variant G7U A33U U69G is 0.0001 s⁻¹ or above.
Out: condition met

In: Hello, I need to know if G13C G43C U57G has measured self-cleavage kobs at 2500 uM GlcN6P not below 0.0001 s⁻¹. Thanks!
Out: condition not met

In: Could you tell me if the measured self-cleavage kobs at 2500 uM GlcN6P of A39C G44U U46C G60U G63C C68A C71A reaches 0.0001 s⁻¹ or more?
Out: condition not met

In: Quick check: does G44U C70A have self-cleavage kobs at 2500 uM GlcN6P greater than or equal to 0.0001 s⁻¹?
Out: condition not met

In: hey, is self-cleavage kobs at 2500 uM GlcN6P for this one >= 0.0001 s⁻¹? C10U U56A
Out: condition not met

In: Does G13C U31A A53G have a reported self-cleavage kobs at 2500 uM GlcN6P of at least 0.0001 s⁻¹?
Out: condition met

In: Does U46G A52U have a reported self-cleavage kobs at 2500 uM GlcN6P of at least 0.0001 s⁻¹?
Out: condition not met

In: Does the reported self-cleavage kobs at 2500 uM GlcN6P for G32C A36C A39U U69G fall at or above the 0.0001 s⁻¹ mark?
Out: condition not met

In: Quick check, self-cleavage kobs at 2500 uM GlcN6P >= 0.0001 s⁻¹? C34U G35A G44C U54A U65G
Out: condition not met

In: For this variant, is measured self-cleavage kobs at 2500 uM GlcN6P 0.0001 s⁻¹ or higher? A15C U56C
Out: condition met

In: Assess whether reported self-cleavage kobs at 2500 uM GlcN6P for G37A C50G C58A C67A C71U sits at 0.0001 s⁻¹ or higher.
Out: condition not met

In: Check the entry A42G A52G C67A : does self-cleavage kobs at 2500 uM GlcN6P equal or exceed 0.0001 s⁻¹?
Out: condition met

In: Does the reported self-cleavage kobs at 2500 uM GlcN6P for A6C G9U C70A fall at or above the 0.0001 s⁻¹ mark?
Out: condition not met

In: Textbook exercise: given the entry G32U G43C , state whether its self-cleavage kobs at 2500 uM GlcN6P is greater than or equal to 0.0001 s⁻¹.
Out: condition not met

In: Given U31G G66A , state whether its self-cleavage kobs at 2500 uM GlcN6P is at least 0.0001 s⁻¹.
Out: condition met
